molecular target: UniProt:Q06187; assay: biochemical; settings: read-out: BTK inhibition (%), 0.75 uM BTK, […] probe 3l, 15 min preincubation
QUANTITY_KIND: inhibition at 10 µM
In your response, put the unit directly after the numeric value.

MOLECULE: CCCc1nc2c(C)cc(-c3nc4ccccc4n3C)cc2n1Cc1ccc(-c2ccccc2C(=O)O)cc1 [PCM-0086294]
inhibition at 10 µM: -10.9%
--
MOLECULE: C[N+]1(C)CCC(=C(c2ccccc2)c2ccccc2)CC1 [PCM-0085922]
inhibition at 10 µM: 13.2%

Data request: Quick one: give measured inhibition at 10 µM for CN1CCN(C2CCN(C(=O)Nc3cc(Oc4ccc(NC(=O)C5(C(=O)Nc6ccc(F)cc6)CC5)c(F)c4)ccn3)CC2)CC1 [PCM-0095502]
Data returned: 17.2%

Data request: Quick one: give measured inhibition at 10 µM for CCOC(=O)[C@H](CCc1ccccc1)N[C@@H](C)C(=O)N1Cc2cc(OC)c(OC)cc2C[C@H]1C(=O)O [PCM-0095243]
Data returned: -6.2%

====

biological target: BTK (Homo sapiens, UniProt Q06187); assay: biochemical; details: read-out: BTK inhibition (%), 0.75 uM BTK, […] probe 3l, 15 min preincubation
Sequence (Q06187 402-655 limits assumed): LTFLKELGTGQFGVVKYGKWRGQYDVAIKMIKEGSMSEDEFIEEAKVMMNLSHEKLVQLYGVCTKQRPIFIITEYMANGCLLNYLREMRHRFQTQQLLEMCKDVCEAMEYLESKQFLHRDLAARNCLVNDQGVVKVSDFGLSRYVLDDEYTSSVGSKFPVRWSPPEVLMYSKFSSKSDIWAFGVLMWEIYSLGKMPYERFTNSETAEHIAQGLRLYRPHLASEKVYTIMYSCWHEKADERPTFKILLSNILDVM
Let's look at some molecules and their measured inhibition at 10 µM.
Output spec: scalar in %, unitless text.

Solved entries:
MOL: CCC(=O)OCC(=O)[C@@]1(OC(=O)CC)[C@@H](C)C[C@H]2[C@@H]3CCC4=CC(=O)C=C[C@]4(C)[C@@]3(F)[C@@H](O)C[C@@]21C
QUANTITY_KIND: inhibition at 10 µM
SCALE_UNIT: %
DATA_VALUE: -9.3
//
MOL: COc1cc2nccc(Oc3ccc(NC(=O)C4(C(=O)Nc5ccc(F)cc5)CC4)cc3)c2cc1OC
QUANTITY_KIND: inhibition at 10 µM
SCALE_UNIT: %
DATA_VALUE: 86.9

Next:
Data request: Quick one: give measured inhibition at 10 µM for `COC(=O)CC[C@@H](C)[C@H]1CC[C@H]2[C@@H]3[C@H](O)C[C@@H]4C[C@H](O)CC[C@]4(C)[C@H]3C[C@H](O)[C@]12C`
Data returned: -4.7

====

molecular target: UniProtKB Q06187; experiment: biochemical; conditions: read-out: BTK inhibition (%), 0.75 uM BTK, […] probe 3l, 15 min preincubation
Use y when the recorded inhibition at 10 µM is no lower than -10%; use n when it is lower.

Solved entries:
MOL: O=P(O)(O)C(Cl)(Cl)P(=O)(O)O
ASSIGNED_CLASS: n

MOL: C[C@H]1CC[C@@]2(OC1)O[C@H]1C[C@H]3[C@@H]4CC[C@@H]5C[C@@H](O[C@@H]6O[C@H](CO)[C@H](O)[C@H](O)[C@H]6O[C@@H]6O[C@H](CO)[C@@H](O)[C@H](O)[C@H]6O)CC[C@]5(C)[C@H]4CC[C@]3(C)[C@H]1[C@@H]2C
ASSIGNED_CLASS: y

MOL: COc1cc(Nc2ncc3c(n2)-c2ccc(Cl)cc2C(c2c(F)cccc2OC)=NC3)ccc1C(=O)O
ASSIGNED_CLASS: y

MOL: CC1(C)[C@@H](O)CC[C@]2(C)[C@H]3C(=O)C=C4[C@@H]5C[C@@](C)(C(=O)O)CC[C@]5(C)CC[C@@]4(C)[C@]3(C)CC[C@@H]12
ASSIGNED_CLASS: y

MOL: CC(C)(O)CNc1ncc(-c2ccnc(Nc3ccnc(Cl)c3)n2)c(CC2CC2)n1
ASSIGNED_CLASS: n

MOL: CCCCNc1cc(C(=O)O)cc(S(N)(=O)=O)c1Oc1ccccc1
ASSIGNED_CLASS: y

Data request: Decide: is the reported value of inhibition at 10 µM for `CC(C)(N)C(=O)N[C@H](COCc1ccccc1)C(=O)N1CCC2(CC1)CN(S(C)(=O)=O)c1ccccc12` equal to or greater than -10%?
Data returned: n

Data request: Decide: is the reported value of inhibition at 10 µM for `CCNC1(C(N)=O)CCN(c2ncnc3c2nc(-c2ccccc2Cl)n3-c2ccc(Cl)cc2)CC1` equal to or greater than -10%?
Data returned: n

Provenance of the data: paper PMC8041284
